Tested on: LCLC-97TM1
Experiment: relative viability (nuclei count vs DMSO), 5 days (fraction); higher = more cells survive
Details: first compound 0.01581 µM
observed.property: relative viability
// no unit string in output, number only

*Q* For the compound CC1(C)CCC(c2ccc(Cl)cc2)=C(CN2CCN(c3ccc(C(=O)NS(=O)(=O)c4ccc(N[C@H](CCN5CCOCC5)CSc5ccccc5)c(S(=O)(=O)C(F)(F)F)c4)cc3)CC2)C1 [Navitoclax] + COc1cccc2cc(-c3nc([C@H]4CC[C@H](C(=O)O)CC4)n4ncnc(N)c34)[nH]c12 [OSI-027] (partner 0.5 µM) , report relative viability.
*A* 0.484

*Q* For the compound CC1(C)CCC(c2ccc(Cl)cc2)=C(CN2CCN(c3ccc(C(=O)NS(=O)(=O)c4ccc(N[C@H](CCN5CCOCC5)CSc5ccccc5)c(S(=O)(=O)C(F)(F)F)c4)cc3)CC2)C1 [Navitoclax] + NC(=O)Nc1cc(-c2cccc(F)c2)sc1C(=O)N[C@H]1CCCNC1 [AZD7762] (partner 0.2 µM) , report relative viability.
*A* 0.301

*Q* For the compound CC1(C)CCC(c2ccc(Cl)cc2)=C(CN2CCN(c3ccc(C(=O)NS(=O)(=O)c4ccc(N[C@H](CCN5CCOCC5)CSc5ccccc5)c(S(=O)(=O)C(F)(F)F)c4)cc3)CC2)C1 [Navitoclax] + Cc1cc(Nc2cc(N3CCN(C)CC3)nc(Sc3ccc(NC(=O)C4CC4)cc3)n2)n[nH]1 [Tozasertib] (partner 0.1 µM) , report relative viability.
*A* 0.164
